Exercise: for every item that follows, state its recorded ED50.
# measurement.target: Opioid receptor (Rattus norvegicus) (UniProt P33533+P34975+P33535)
# Sequence (P33533 whole entry, looked up): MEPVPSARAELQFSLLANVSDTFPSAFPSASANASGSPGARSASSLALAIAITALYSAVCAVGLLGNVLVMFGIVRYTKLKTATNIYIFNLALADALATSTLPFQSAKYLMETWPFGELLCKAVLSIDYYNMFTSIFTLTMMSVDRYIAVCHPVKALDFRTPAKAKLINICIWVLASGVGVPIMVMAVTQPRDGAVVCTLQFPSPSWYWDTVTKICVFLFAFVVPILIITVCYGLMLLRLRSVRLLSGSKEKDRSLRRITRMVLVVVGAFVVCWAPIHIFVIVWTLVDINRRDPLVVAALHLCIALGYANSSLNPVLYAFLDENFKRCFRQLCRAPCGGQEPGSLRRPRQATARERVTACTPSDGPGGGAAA
# Sequence (P33535 whole entry, looked up): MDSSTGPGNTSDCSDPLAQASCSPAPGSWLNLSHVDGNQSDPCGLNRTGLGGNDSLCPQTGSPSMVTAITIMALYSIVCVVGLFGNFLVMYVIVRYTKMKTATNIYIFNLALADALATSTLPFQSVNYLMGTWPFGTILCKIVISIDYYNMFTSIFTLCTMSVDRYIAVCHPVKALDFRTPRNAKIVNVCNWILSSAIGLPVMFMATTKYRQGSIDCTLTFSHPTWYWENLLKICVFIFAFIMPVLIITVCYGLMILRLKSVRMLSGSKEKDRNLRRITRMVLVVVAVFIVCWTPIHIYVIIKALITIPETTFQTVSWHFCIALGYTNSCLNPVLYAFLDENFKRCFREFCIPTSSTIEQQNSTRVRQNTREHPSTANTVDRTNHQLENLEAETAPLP
# Sequence (P34975 whole entry, looked up): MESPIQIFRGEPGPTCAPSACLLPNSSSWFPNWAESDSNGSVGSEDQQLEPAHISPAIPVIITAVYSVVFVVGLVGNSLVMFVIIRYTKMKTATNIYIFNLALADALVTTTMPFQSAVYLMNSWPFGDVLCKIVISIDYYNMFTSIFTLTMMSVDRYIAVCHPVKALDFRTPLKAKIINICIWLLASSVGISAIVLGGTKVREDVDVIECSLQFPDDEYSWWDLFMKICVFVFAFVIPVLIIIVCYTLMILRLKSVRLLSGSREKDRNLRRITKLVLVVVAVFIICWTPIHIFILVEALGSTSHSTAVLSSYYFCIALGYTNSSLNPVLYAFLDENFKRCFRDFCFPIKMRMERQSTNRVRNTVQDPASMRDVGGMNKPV
# run.description: Inhibition of morphine analgesia in modified rat tail flick test.
# Type: functional
Give just the numeric value; µmol/kg need not be written.

Which ED50 is listed for "COc1ccc2c(c1)[C@]13CCN(CC4CC4)[C@H](C2)[C@@H]1[C@@H](C)CC(=O)C3" ?
4.3

GET /values?readout=ED50&item= "Oc1ccc2c(c1)[C@@]13CCCC[C@@]1(O)[C@@H](C2)N(CC1CCC1)CC3"
2

// ED50 lookup, key: O=C1CCC2C3Cc4ccc(O)cc4C2(CCN3CC2CC2)C1 (stereo not given)
7.4

Endpoint output: ED50 of CC[C@H]1CC(=O)CC23CCN(CC4CC4)C(Cc4ccc(O)cc42)C13 (stereo not given in full) . Value?
4.7
